target: T1, HLA-DRB1*0101 (human); assay: inhibition of 125I probe peptide binding to purified HLA-DR, gel filtration
T1 construct: Purified HLA molecule; also called DR1
pIC50: −log10 of the molar value.
outcomeMeasure: pIC50

binder	recordedValue
QPDVRPQPPSPREGP (Synthetic peptide) [Her2/neu.1142]	5.15
